# Assay Details: Rat pharmacokinetics, oral dosing
# Type: in vivo, Sprague-Dawley rats
# Measurement Conditions: male, Sprague-Dawley, oral dosing at 3 mg/kg, plasma, read-out: Rat T1/2
half-life values by entry
Value Kind: half-life

cpd_smiles=COc1cc(C#N)ccc1COc1cccc(C2CCN(Cc3nc4c(OC(F)F)cc(C(=O)O)cc4n3C)CC2)n1 measured="< 1.5 h"
cpd_smiles=COc1cc(Cl)ccc1COc1cccc(C2CCN(Cc3nc4c(OC(F)F)cc(C(=O)O)cc4n3C)CC2)n1 measured="≥ 2.5 h"
cpd_smiles=Cn1c(CN2CCC(c3cccc4c3OC[C@@H](c3ccc(C#N)cc3F)O4)CC2)nc2c(OC(F)F)cc(C(=O)O)cc21 measured="≥ 2.5 h"
cpd_smiles=CC(F)(F)c1cc(C(=O)O)cc2c1nc(CN1CCC(c3cccc4c3O[C@](C)(c3ccc(Cl)cn3)O4)CC1)n2C[C@@H]1CCO1 measured="< 1.5 h"
cpd_smiles=COc1cc(C(=O)O)c(F)c2c1nc(CN1CCC(c3cccc(OCc4ccc(Cl)cc4F)n3)CC1)n2C measured="≥ 2.5 h"

----------
# Test System: human GLP-1R receptor (Homo sapiens, UniProt P43220)
# Sequence (P43220 24-463): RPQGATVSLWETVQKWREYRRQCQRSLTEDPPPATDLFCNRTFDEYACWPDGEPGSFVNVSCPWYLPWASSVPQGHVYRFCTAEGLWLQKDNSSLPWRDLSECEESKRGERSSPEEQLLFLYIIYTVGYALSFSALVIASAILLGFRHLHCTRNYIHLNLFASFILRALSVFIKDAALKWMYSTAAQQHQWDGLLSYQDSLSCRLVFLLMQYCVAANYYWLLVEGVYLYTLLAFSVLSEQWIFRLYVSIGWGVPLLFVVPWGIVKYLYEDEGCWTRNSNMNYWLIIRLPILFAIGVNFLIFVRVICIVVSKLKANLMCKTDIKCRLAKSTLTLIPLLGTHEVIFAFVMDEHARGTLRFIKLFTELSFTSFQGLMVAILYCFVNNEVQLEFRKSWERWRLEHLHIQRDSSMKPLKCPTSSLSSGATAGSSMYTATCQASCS
# Assay Details: GLP-1R low expression cell assay (cAMP TR-FRET, CHO-K1_hGLP-1Rlow_clone10 cells)
# Measurement Conditions: cAMP TR-FRET, 30 min at 25° C.
EC50 values by entry
Value Kind: EC50

compound="Cn1c(CN2CCC(c3cccc4c3OC(c3ccc(Cl)cc3F)C=C4)CC2)nc2c(OC(F)F)cc(C(=O)O)cc21 (single isomer, unassigned) [Compound 175]" value_kind=EC50 measured="< 10 nM"
compound=Cn1c(CN2CCC(c3ccnc(OCc4ccc(C#N)cc4F)n3)CC2)nc2c(OC(F)F)cc(C(=O)O)cc21 value_kind=EC50 measured="100 to 1000 nM"
compound=COc1cc(C(=O)O)cc2c1nc(CN1CCC(c3cccc4c3OC[C@H](c3ccc(C#N)cc3F)O4)CC1)n2C value_kind=EC50 measured="> 1000 nM"
compound=COc1c(OCc2ccc(C#N)cc2F)cccc1C1CCN(Cc2nc3c(OC(F)F)cc(C(=O)O)cc3n2C)CC1 value_kind=EC50 measured="> 1000 nM"
compound=COc1cc(C(=O)O)c(F)c2c1nc(CN1CCC(c3ccc(F)c(OCc4ccc(C#N)cc4F)c3)CC1)n2C value_kind=EC50 measured="100 to 1000 nM"
compound=Cn1c(N(C)[C@H]2CC[C@@H](c3cccc(OCc4ccc(C#N)cc4F)n3)CC2)nc2c(OC(F)F)cc(C(=O)O)cc21 value_kind=EC50 measured="> 1000 nM"
compound=Cn1c(Cc2ccc(-c3cccc(OCc4ccc(Cl)cc4F)n3)cc2F)nc2c(OC(F)F)cc(C(=O)O)cc21 value_kind=EC50 measured="10 to 100 nM"

----------
AUC values by entry
# Assay Details: Rat pharmacokinetics, oral dosing
# Format: in vivo, Sprague-Dawley rats
# Measurement Conditions: male, Sprague-Dawley, oral dosing at 3 mg/kg, plasma
Value Kind: AUC

compound="Cn1c(CN2CCC(c3cccc4c3O[C@@H](c3ccc(C#N)cc3F)CO4)CC2)nc2c(OCCF)cc(C(=O)O)cc21 [Compound 294]" value_kind=AUC measured="< 500 ng·h/mL"
compound="Cn1c(CN2CCC(c3cccc4c3O[C@@H](c3ccc(Cl)cc3F)CO4)CC2)nc2c(OCCF)cc(C(=O)O)cc21 [Compound 299]" value_kind=AUC measured="500 to 2500 ng·h/mL"
compound="COc1cc(C(=O)O)cc2c1nc(CN1CC[C@@H](c3cccc4c3O[C@@](C)(c3ccc(Cl)cn3)O4)[C@@H]3C[C@@H]31)n2C[C@@H]1CCO1 [Compound 89]" value_kind=AUC measured="< 500 ng·h/mL"
compound="Cn1c(CN2CCC(c3cccc4c3O[C@@](C)(c3ccc(Cl)cn3)O4)CC2)nc2c(OC(F)F)cc(C(=O)O)cc21 [Compound 83]" value_kind=AUC measured="2500 to 10000 ng·h/mL"
compound="C[C@]1(c2ccc(Cl)cn2)Oc2cccc(C3CCN(Cc4nc5c(OC(F)F)cc(C(=O)O)cc5n4C[C@@H]4CCO4)CC3)c2O1 [Compound 78]" value_kind=AUC measured="< 500 ng·h/mL"
compound="CC(C)Oc1cc(C(=O)O)cc2c1nc(CN1CCC(c3cccc(OCc4ccc(C#N)cc4F)n3)CC1)n2Cc1cncs1 [Compound 73]" value_kind=AUC measured="< 500 ng·h/mL"

This collection of values is drawn from patent US20240368120A1.
